Would you mind telling me the reported inhibition of each entry?
- subjectOfTest: Serine/threonine-protein kinase Chk2 (Homo sapiens)
- testConditions: at 1 µM;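 further: reported value is the mean inhibition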
Numbers only, in %.

compound	subjectOfTest	inhibition, %
OCCCNc1nccc(-c2c(-c3ccc(F)cc3)nn3cc(C(F)(F)F)ccc23)n1	Serine/threonine-protein kinase Chk2 (Homo sapiens)	2.83
CS(=O)(=O)Nc1ccc(-c2ccc3c(NC(=O)C4CC4)n[nH]c3c2)cc1	Serine/threonine-protein kinase Chk2 (Homo sapiens)	7.38
CN1CCC(n2cnc(-c3ccc(F)cc3)c2-c2ccnc(NCCO)n2)CC1	Serine/threonine-protein kinase Chk2 (Homo sapiens)	5.51
FC(F)(F)CNc1nccc(-c2cnn3ncccc23)n1	Serine/threonine-protein kinase Chk2 (Homo sapiens)	0.78
COc1cccc(-n2ncc3c(N/N=C/c4ccc(C(=O)NCCN(C)C)cc4)ncnc32)c1	Serine/threonine-protein kinase Chk2 (Homo sapiens)	3.14
Cn1c(-c2nonc2N)nc2cnccc21	Serine/threonine-protein kinase Chk2 (Homo sapiens)	3.21
COc1cc(N2CCN(C(C)C)CC2)ccc1Nc1nc(Nc2cccc(F)c2C(=O)O)c2cc[nH]c2n1	Serine/threonine-protein kinase Chk2 (Homo sapiens)	26.3
CNC(=O)c1sc(-n2cnc3cc(OC)c(OC)cc32)cc1OCc1ccccc1C(F)(F)F	Serine/threonine-protein kinase Chk2 (Homo sapiens)	2.7

Give inhibition for each listed item.
1. CC1=C(C(=O)Nc2ccc3[nH]ncc3c2)C(c2ccc(F)cc2)N=C(c2ccc(C(F)(F)F)nc2)N1 (stereo not given)
2. CC(C)c1ccc(-c2cc(-c3c[nH]nc3-c3ccccn3)ccn2)cc1
3. CNC(=O)c1cncc(/C=C/c2ccccc2C)c1
4. COc1cc(N2CCN(C(C)C)CC2)ccc1Nc1nc(Nc2cccc3ncccc23)c2cc[nH]c2n1

Return:
1: 2.24; 2: 0.77; 3: 3.83; 4: 4.32

Cited source: ChEMBL document CHEMBL1961873
